Listing: Ratio Ki of selected molecules
species: Homo sapiens; experiment: Selectivity ratio of Ki for displacement of [3H]HEMADO from human adenosine A3 receptor expressed in CHO cells to Ki for displacement of [3H]NECA from human adenosine A2A receptor expressed in CHO cells; assay type: cell-based
// return just the number, without any unit appended

Examples from the recorded data:
| Given smiles | Observed property | Meas value |
| --- | --- | --- |
| N#Cc1cccc(-c2nc(N)c3nc(-c4ccco4)sc3n2)c1 | Ratio Ki | 8 |
| Nc1nc(-c2ccco2)nc2sc(-c3ccco3)nc12 | Ratio Ki | 29.1 |
| COc1ccc(-c2nc(N)c3nc(-c4ccccc4)sc3n2)cc1 | Ratio Ki | 0.4 |

Lab note: measured Ratio Ki of `COc1cccc(-c2nc(N)c3nc(-c4ccco4)sc3n2)c1` was 2.6

Lab note: measured Ratio Ki of `Cc1nc(N)c2nc(-c3ccccc3)sc2n1` was 10.7

Lab note: measured Ratio Ki of `Cc1ccc(-c2nc(N)c3nc(-c4ccccc4)sc3n2)o1` was 1.1

Lab note: measured Ratio Ki of `COc1ccc(-c2nc(N)c3nc(-c4ccco4)sc3n2)cc1` was 0.4
